# MEASUREMENT TARGET: T1, 4H2865-AA
# T1 chain: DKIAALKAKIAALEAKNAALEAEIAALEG
# PROTOCOL NOTES: two-hybrid library CCmax;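 further: natural log of median RNA to DNA barcode read ratio; higher means stronger binding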
# CONDITIONS: mean of both orientations
MEASUREMENT KIND: interaction score

- BINDER: "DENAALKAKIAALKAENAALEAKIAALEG [4H1877-AA]"
  interaction score: -0.796
- BINDER: "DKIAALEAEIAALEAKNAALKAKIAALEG [4H2109-AA]"
  interaction score: 2.17
- BINDER: "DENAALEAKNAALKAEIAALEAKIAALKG [4H1478-AA]"
  interaction score: -1.39
- BINDER: "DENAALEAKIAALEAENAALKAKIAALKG [4H1310-AA]"
  interaction score: 1.76
- BINDER: "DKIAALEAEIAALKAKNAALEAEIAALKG [4H2162-AA]"
  interaction score: -0.262
- BINDER: "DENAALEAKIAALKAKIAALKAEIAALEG [4H1385-AA]"
  interaction score: -0.751
- BINDER: "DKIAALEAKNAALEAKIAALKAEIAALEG [4H2473-AA]"
  interaction score: -0.67
- BINDER: "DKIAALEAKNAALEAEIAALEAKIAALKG [4H2438-AA]"
  interaction score: -0.236

(a) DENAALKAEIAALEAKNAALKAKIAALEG [4H1597-AA]
(b) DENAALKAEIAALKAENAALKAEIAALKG [4H1626-AA]
INPUT: Kindly identify the item with the lower interaction score figure among these two: a and b Give the label of your selection.
OUTPUT: b
